assay: xn = mol fraction of the nth substance listed; conditions: 313.15 K; 101.33 kPa; x1 = 0.5

{"columns": ["compound", "viscosity / mPa·s"],
 "data": [
  ["COc1ccccc1 + CCCCCO", 1.022],
  ["COc1ccccc1 + CCCCCCCO", 1.373],
  ["COc1ccccc1 + CCCCCCO", 1.166],
  ["COc1ccccc1 + CC(C)CO", 0.845],
  ["COc1ccccc1 + CCCCCCCCO", 1.561],
  ["COc1ccccc1 + CCC(C)O", 0.843],
  ["CCCC[P+](CCCC)(CCCC)CCCC.CS(=O)(=O)[O-] + O=S1(=O)CCCC1", 84.22],
  ["COc1ccccc1 + CCCCO", 0.889]
]}

###

test: xn = mol fraction of the nth substance listed; conditions: 303.15 K; 101.33 kPa; x1 = 0.9
value_type: viscosity (mPa·s)

{"columns": ["compound", "value_type", "unit_of_measurement", "endpoint_result"],
 "data": [
  ["COc1ccccc1 + CCCCCCO", "viscosity", "mPa·s", 0.927],
  ["COc1ccccc1 + CCC(C)O", "viscosity", "mPa·s", 0.918],
  ["COc1ccccc1 + CCCCCO", "viscosity", "mPa·s", 0.914],
  ["COc1ccccc1 + CCCCO", "viscosity", "mPa·s", 0.914],
  ["COc1ccccc1 + CCCCCCCCO", "viscosity", "mPa·s", 0.968]
]}

###

experiment: xn = mol fraction of the nth substance listed; details: 313.15 K; 101.33 kPa; x1 = 0.9

{"columns": ["compound", "viscosity / mPa·s"],
 "data": [
  ["COc1ccccc1 + CCCCCO", 0.791],
  ["COc1ccccc1 + CCC(C)O", 0.792],
  ["COc1ccccc1 + CCCCCCO", 0.798],
  ["COc1ccccc1 + CCCCO", 0.772],
  ["COc1ccccc1 + CCCCCCCCO", 0.831]
]}

###

The reader will find reported viscosity values listed item by item below.
experiment: xn = mol fraction of the nth substance listed; details: 298.15 K; 101 kPa; x1 = 0.5

{"columns": ["compound", "unit_of_measurement", "viscosity"],
 "data": [
  ["C1CCOC1 + CC(C)CC(C)(C)C", "mPa·s", 0.473],
  ["C1CCOC1 + CCCCO", "mPa·s", 0.8514],
  ["C1CCOC1 + CCCO", "mPa·s", 0.7603],
  ["C1CCOC1 + CCC(C)O", "mPa·s", 0.8021]
]}

###

conditions: 313.15 K; 100 kPa
± gives the uncertainty stated by the source.
The reader will find reported viscosity values listed item by item below.
value_type: viscosity

{"columns": ["line_notation", "value_type", "endpoint_result"],
 "data": [
  ["CCOCCn1cc[n+](C)c1.C[C@@H](O)[C@H](N)C(=O)[O-]", "viscosity", "312.5 ± 20 mPa·s"],
  ["Brc1ccc2[n-]cnc2c1.CCCCCCCCCCCCCC[P+](CCCCCC)(CCCCCC)CCCCCC", "viscosity", "441 ± 20 mPa·s"],
  ["C1CCOC1", "viscosity", "0.39 ± 0.016 mPa·s"],
  ["Cc1ccccc1", "viscosity", "0.495 ± 0.012 mPa·s"],
  ["COc1ccccc1", "viscosity", "0.764 ± 0.031 mPa·s"]
]}

###

The reader will find reported viscosity values listed item by item below.
assay: xn = mol fraction of the nth substance listed; settings: 308.15 K; 101 kPa; x1 = 0.8
value_type: viscosity (mPa·s)

{"columns": ["compound", "unit_of_measurement", "endpoint_result"],
 "data": [
  ["C1CCOC1 + CC(C)CC(C)(C)C", "mPa·s", 0.432],
  ["C1CCOC1 + CC(C)O", "mPa·s", 0.461],
  ["COc1ccccc1 + C1CCCCC1", "mPa·s", 0.7693],
  ["C1CCOC1 + O=C1CCCO1", "mPa·s", 0.531]
]}

###

assay: xn = mol fraction of the nth substance listed; conditions: 298.15 K; 101 kPa; x1 = 0.4

{"columns": ["compound", "unit_of_measurement", "viscosity"],
 "data": [
  ["CC(C)=O + O", "mPa·s", 0.88],
  ["C1CCOC1 + CC(C)CC(C)(C)C", "mPa·s", 0.474],
  ["C1CCOC1 + CCO", "mPa·s", 0.6728],
  ["C1CCOC1 + CC(C)O", "mPa·s", 0.752]
]}

###

conditions: 293.15 K; 101.33 kPa
The reader will find reported viscosity values listed item by item below.
value_type: viscosity (mPa·s)

{"columns": ["molecule", "unit_of_measurement", "endpoint_result"],
 "data": [
  ["CC1COC(=O)O1 (stereo not given)", "mPa·s", 2.721],
  ["CC(C)CC(=O)O", "mPa·s", 2.411],
  ["CCOCCn1cc[n+](CCC#N)c1.O=S(=O)([N-]S(=O)(=O)C(F)(F)F)C(F)(F)F", "mPa·s", 401.1],
  ["Cc1ccccc1", "mPa·s", 0.592],
  ["C1CCOC1", "mPa·s", 0.48]
]}

###

test: xn = mol fraction of the nth substance listed; conditions: 308.15 K; 101 kPa; x1 = 0.2
± gives the uncertainty stated by the source.
The reader will find reported viscosity values listed item by item below.
value_type: viscosity

{"columns": ["compound", "endpoint_result"],
 "data": [
  ["CC[N+](CC)(CC)CC.Cc1ccc(S(=O)(=O)[O-])cc1 + OCCOCCOCCOCCO", "45.9 ± 0.6 mPa·s"],
  ["CC[N+](CC)(CC)CC.Cc1ccc(S(=O)(=O)[O-])cc1 + OCCO", "32.8 ± 0.4 mPa·s"],
  ["C1CCOC1 + CC(C)CC(C)(C)C", "0.432 ± 0.012 mPa·s"],
  ["CC[N+](CC)(CC)CC.Cc1ccc(S(=O)(=O)[O-])cc1 + CC(O)CO", "39.8 ± 0.5 mPa·s"]
]}

###

details: 303.15 K; 100 kPa
The reader will find reported viscosity values listed item by item below.

{"columns": ["line_notation", "viscosity [mPa·s]"],
 "data": [
  ["Cc1ccccc1", 0.539],
  ["CCOCCn1cc[n+](C)c1.C[C@@H](O)[C@H](N)C(=O)[O-]", 730.3],
  ["Brc1ccc2[n-]cnc2c1.CCCCCCCCCCCCCC[P+](CCCCCC)(CCCCCC)CCCCCC", 872],
  ["COc1ccccc1", 0.923]
]}

###

assay: xn = mol fraction of the nth substance listed; conditions: 303.15 K; 101.33 kPa; x1 = 0.6002
The reader will find reported viscosity values listed item by item below.

{"columns": ["molecule", "viscosity (mPa·s)"],
 "data": [
  ["COc1ccccc1 + CCCCCCCCO", 1.576],
  ["COc1ccccc1 + CCCCCCO", 1.27],
  ["COc1ccccc1 + CCCCCO", 1.109],
  ["COc1ccccc1 + CCCCO", 1.001]
]}

###

assay: xn = mol fraction of the nth substance listed; settings: 323.15 K; 101.33 kPa; x1 = 0.6002

{"columns": ["compound", "viscosity / mPa·s"],
 "data": [
  ["COc1ccccc1 + CCCCO", 0.734],
  ["COc1ccccc1 + CCCCCCCCO", 1.054],
  ["COc1ccccc1 + CCCCCCO", 0.878],
  ["COc1ccccc1 + CCCCCO", 0.792]
]}

###

conditions: 298.15 K; 100 kPa

{"columns": ["compound", "viscosity [mPa·s]"],
 "data": [
  ["Brc1ccc2[n-]cnc2c1.CCCCCCCCCCCCCC[P+](CCCCCC)(CCCCCC)CCCCCC", 1270],
  ["Cc1ccccc1", 0.551],
  ["CCOCCn1cc[n+](C)c1.C[C@@H](O)[C@H](N)C(=O)[O-]", 1133],
  ["CC1COC(=O)O1 (centres undefined)", 2.53]
]}

###

assay: xn = mol fraction of the nth substance listed; settings: 298.15 K; 101 kPa; x1 = 0.2
The reader will find reported viscosity values listed item by item below.

{"columns": ["compound", "viscosity / mPa·s"],
 "data": [
  ["CC(C)=O + O", 1.343],
  ["CC[N+](CC)(CC)CC.Cc1ccc(S(=O)(=O)[O-])cc1 + CC(O)CO", 66.9],
  ["CC[N+](CC)(CC)CC.Cc1ccc(S(=O)(=O)[O-])cc1 + OCCO", 51.2],
  ["C1CCOC1 + O", 1.723],
  ["C1CCOC1 + CC(C)CC(C)(C)C", 0.477],
  ["CC[N+](CC)(CC)CC.Cc1ccc(S(=O)(=O)[O-])cc1 + OCCOCCOCCOCCO", 74.7]
]}

All figures here come from the CheMixHub viscosity set.
